Target: SARS-CoV-2 "Delta" B.1.617.2 full-length Spike protein on pseudovirus (SARS-CoV-2, UniProt P0DTC2 14-1273)
Experiment: cell-based or functional assay
MEASURED ATTRIBUTE: Pseudovirus Neturalization

BINDER | Pseudovirus Neturalization
AB-009346 (antibody, V domains shown) VH: EVQLVESGGGVVRPGGSLRLSCAASGFTFDDYGMSWVRQAPGKGLEWVSGINWNGGSTGYADSVKGRFTISRDNAKNSLYLQMNSLRAEDTALYYCARWPLLGISGYYHYYMDVWGKGTTVTVSS VL: QSALTQPRSVSGSPGQSVTISCTGTSSDVGGYNYVSWYQQHPGKAPKLMIYDVSKRPSGVPDRFSGSKSGNTASLTISGLQAEDEADYYCCSYAGSYTLLFGGGTKLIVL | > 50 µg/mL

*Q* Give the reported value of Pseudovirus Neturalization for this record: AB-009281 (antibody, V domains shown) VH: EVQLVETGGGLIQPGGSLRLSCAASGFTVSSNYMSWVRQAPGKGLEWVSVIYSGGSTYYADSVKGRFTISRDNSKNTLYLQMNSLRAEDTAVYYCARDLYYYGMDVWGQGTTVTVSS VL: DIQLTQSPSFLSASVGDRVTITCRASQGISSYLAWYQQKPGKAPKLLIYAASTLQSGVPSRFSGSGSGTEFTLTISSLQPEDFATYYCQQLNSYPTFGQGTKVEIK
*A* 0.032 µg/mL
